Molecular target: EPHB2 (UniProt P29323)
Sequence (P29323 whole entry, looked up): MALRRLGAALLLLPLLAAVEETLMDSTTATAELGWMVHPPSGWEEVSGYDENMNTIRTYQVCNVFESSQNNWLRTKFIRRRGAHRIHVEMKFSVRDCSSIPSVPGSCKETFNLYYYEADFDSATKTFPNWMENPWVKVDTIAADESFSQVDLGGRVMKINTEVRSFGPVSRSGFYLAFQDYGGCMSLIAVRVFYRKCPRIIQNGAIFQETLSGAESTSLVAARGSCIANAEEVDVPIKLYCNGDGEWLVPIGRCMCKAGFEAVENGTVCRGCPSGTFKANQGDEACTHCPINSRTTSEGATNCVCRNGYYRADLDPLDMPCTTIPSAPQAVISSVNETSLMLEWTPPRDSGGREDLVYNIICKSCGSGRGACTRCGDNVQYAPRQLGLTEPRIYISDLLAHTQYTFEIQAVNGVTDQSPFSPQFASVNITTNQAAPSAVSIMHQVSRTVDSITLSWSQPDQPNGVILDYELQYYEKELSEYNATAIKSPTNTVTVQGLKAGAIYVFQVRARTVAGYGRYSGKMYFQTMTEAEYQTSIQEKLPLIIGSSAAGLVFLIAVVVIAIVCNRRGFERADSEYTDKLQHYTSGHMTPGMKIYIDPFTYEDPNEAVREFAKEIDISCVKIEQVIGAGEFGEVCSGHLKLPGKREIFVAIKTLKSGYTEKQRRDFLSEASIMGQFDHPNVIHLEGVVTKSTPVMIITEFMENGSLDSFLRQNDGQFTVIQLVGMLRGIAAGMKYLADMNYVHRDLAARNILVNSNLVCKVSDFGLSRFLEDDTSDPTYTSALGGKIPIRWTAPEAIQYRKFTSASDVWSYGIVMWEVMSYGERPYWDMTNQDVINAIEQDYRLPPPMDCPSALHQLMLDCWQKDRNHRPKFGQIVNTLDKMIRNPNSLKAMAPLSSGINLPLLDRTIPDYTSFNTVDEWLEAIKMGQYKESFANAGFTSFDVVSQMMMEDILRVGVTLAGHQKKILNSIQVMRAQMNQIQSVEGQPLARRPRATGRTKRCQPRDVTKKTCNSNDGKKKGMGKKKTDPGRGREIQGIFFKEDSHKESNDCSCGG
Test: phosphorylation enrichment, bacterial display (enrichment ratio); higher = better substrate or ligand; peptides without Tyr show the background;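 also: 11-residue human phosphosite peptides and single-mutation variants displayed on the E. coli surface, counted by deep sequencing, each peptide's frequency after selection divided by its frequency in the unselected input library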;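 also: frequency after pTyr selection over input frequency; kinase dosed for 20-30% of maximal phosphorylation in three min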
For each of the sequences below, state its phosphorylation enrichment.
No unit in the answer, only the number.

## Task Test system EPHB2 (UniProt P29323); read-out phosphorylation enrichment; what value for RMDGKYACSFT [FLNB_Y704_T703K_YF] ?
## Result 0.977

## Task Thanks! And `PGVNYYFQVSA` ?
## Result 1.49

## Task Can you handle THEVRYISAGQ [SLCO4A1_Y77_V78I] next?
## Result 0.396

## Task Further, for DKPENYRRLDI [VHL_Y175_V170D] ?
## Result 0.412

## Task One more sequence: EARRVYRDIIH [ALDH5A1_Y175_G176R]
## Result 0.386

## Task And what about the sequence AVISVYDLVAF [PSEN1_Y256_V261F] ?
## Result 9.61

## Task Lookup GGCQEYTGAPY [NAXD_Y85]
## Result 0.587

====

System: c-Abl (mouse)
Experiment: phosphorylation enrichment, bacterial display (enrichment ratio); higher = better substrate or ligand; peptides without Tyr show the background
Answer each item with its documented phosphorylation enrichment.
Answer with a bare number; do not write a unit.

## Task Returns the measured phosphorylation enrichment for the input sequence. Input: FTGDIYSSSNL [LZTR1_Y141_N143S_YF]
## Result 2.35

## Task Another sequence to check: YSMGCYEIYLG [HMGCL_Y198_S201Y]
## Result 1.37

## Task Also need TTKGSYSLFVR [HCK_Y180_S183Y_YF] , thanks.
## Result 0.546

## Task # iterate: GIVEDYRPPFY [ACVRL1_Y421]
## Result 0.735

## Task Request: KVKPIYFRTQG [AR_Y916_H918R]
## Result 0.626

## Task Similarly, RRSQSYIPTSG [PLEKHA2_Y185] ?
## Result 0.497

## Task Check RLAKTYKTTLE [ALB_Y377_E378K] too.
## Result 1.18

## Task And the next one, VSVVDYVEPSP [TXNRD2_Y70_A66S] ?
## Result 0.576

## Task Repeat for the following sequence: IDDNEYAYLKA [HNF4A_Y286]
## Result 0.571

## Task Follow-up item: QDDFSYPSRQM [LDLR_Y847_G844D_YF]
## Result 0.609

## Task Same read-out for KTGNIYRTEFG [MRPL3_Y265_M261T_YF] ?
## Result 0.457

## Task # iterate: KHMADYPDYKY [SOX11_Y113]
## Result 0.404

## Task Again, but for KLGDVYVNVAF [PGK1_Y161_D164V]
## Result 0.727

## Task Same question for SSREEYFIGGG [GYPC_Y126_K124E] please.
## Result 0.71

====

Biological target: FGFR1 (UniProt P11362)
Sequence (P11362 whole entry, looked up): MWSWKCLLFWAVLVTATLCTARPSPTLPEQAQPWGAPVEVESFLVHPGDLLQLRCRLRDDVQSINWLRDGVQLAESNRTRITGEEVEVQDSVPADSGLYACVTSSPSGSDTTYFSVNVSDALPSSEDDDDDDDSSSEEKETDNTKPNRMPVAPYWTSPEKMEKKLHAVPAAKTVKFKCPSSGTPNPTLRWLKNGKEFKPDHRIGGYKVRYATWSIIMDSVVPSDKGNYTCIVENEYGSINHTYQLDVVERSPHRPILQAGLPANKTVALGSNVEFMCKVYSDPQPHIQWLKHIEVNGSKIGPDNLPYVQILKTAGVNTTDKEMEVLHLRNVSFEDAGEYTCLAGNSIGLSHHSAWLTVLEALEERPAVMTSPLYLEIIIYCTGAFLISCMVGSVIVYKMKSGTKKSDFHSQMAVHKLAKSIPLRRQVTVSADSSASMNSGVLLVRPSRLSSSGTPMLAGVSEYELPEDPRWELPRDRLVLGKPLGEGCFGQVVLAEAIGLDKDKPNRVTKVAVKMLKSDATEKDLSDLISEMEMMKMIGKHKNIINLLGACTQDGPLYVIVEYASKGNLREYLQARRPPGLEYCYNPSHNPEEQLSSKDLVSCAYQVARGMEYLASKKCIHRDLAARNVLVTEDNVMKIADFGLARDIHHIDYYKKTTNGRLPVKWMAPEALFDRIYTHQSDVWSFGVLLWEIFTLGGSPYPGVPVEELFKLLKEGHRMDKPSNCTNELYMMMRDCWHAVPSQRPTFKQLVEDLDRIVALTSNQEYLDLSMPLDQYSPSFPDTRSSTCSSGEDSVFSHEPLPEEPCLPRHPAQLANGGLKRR
Test: phosphorylation enrichment, bacterial display (enrichment ratio); higher = better substrate or ligand; peptides without Tyr show the background
Threshold check on phosphorylation enrichment: at or above 0.5 gives fulfilled, strictly below gives not fulfilled.

## Task Given RSHRSYSCQVM [IGLL1_Y192_R189H] , state whether its phosphorylation enrichment is at least 0.5.
## Result fulfilled

## Task Follow-up entry: GQDLLYEDEDL [PACS1_Y303_F302L]
## Result fulfilled

## Task Same again, this time with EFTAGYNVKFD [GPX4_Y123_A120T]
## Result not fulfilled

## Task Could you do the same for KILPEYLSNWT [AIFM1_Y347] , please?
## Result fulfilled

## Task Param item: SVQVEYMKTIL [GLYATL2_Y127_D126E]
## Result not fulfilled

## Task Input NYYDTYIKTCL [IQGAP2_Y1445]
## Result fulfilled

## Task Param item: FTFDPYSEEEP [IL2RB_Y387_D391E_YF]
## Result fulfilled
